Overview of reported EC50 across a group of molecules:
target: hT1R1/hT1R3 umami receptor (Homo sapiens, UniProt Q7RTX0+Q7RTX1)
Construct: expressed in transfected cells; host or cells: HEK293 derivative stably expressing Gα15, clone I-17, expression induced with mifepristone
Sequence (Q7RTX1 21-841): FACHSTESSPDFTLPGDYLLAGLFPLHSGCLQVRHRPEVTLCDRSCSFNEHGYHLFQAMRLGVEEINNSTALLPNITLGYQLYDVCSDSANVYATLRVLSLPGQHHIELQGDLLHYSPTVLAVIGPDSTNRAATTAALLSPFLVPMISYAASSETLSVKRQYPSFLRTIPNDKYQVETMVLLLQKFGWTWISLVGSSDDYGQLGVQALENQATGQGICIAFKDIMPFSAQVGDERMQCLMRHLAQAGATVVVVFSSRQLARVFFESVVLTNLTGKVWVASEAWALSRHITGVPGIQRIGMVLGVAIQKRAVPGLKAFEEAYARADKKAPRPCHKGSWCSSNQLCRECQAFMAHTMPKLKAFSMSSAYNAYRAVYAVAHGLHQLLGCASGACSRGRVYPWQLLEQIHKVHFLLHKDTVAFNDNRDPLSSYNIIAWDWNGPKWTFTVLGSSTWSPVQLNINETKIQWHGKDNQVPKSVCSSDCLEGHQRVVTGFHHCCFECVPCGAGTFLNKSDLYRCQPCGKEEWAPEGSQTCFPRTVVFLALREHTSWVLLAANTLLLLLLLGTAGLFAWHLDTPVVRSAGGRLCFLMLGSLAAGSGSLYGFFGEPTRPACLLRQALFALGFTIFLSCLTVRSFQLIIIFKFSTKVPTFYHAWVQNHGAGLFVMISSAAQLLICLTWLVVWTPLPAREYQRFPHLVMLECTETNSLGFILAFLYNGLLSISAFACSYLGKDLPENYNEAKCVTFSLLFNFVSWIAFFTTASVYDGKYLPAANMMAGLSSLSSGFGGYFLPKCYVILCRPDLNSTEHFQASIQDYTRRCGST
Sequence (Q7RTX0 21-852): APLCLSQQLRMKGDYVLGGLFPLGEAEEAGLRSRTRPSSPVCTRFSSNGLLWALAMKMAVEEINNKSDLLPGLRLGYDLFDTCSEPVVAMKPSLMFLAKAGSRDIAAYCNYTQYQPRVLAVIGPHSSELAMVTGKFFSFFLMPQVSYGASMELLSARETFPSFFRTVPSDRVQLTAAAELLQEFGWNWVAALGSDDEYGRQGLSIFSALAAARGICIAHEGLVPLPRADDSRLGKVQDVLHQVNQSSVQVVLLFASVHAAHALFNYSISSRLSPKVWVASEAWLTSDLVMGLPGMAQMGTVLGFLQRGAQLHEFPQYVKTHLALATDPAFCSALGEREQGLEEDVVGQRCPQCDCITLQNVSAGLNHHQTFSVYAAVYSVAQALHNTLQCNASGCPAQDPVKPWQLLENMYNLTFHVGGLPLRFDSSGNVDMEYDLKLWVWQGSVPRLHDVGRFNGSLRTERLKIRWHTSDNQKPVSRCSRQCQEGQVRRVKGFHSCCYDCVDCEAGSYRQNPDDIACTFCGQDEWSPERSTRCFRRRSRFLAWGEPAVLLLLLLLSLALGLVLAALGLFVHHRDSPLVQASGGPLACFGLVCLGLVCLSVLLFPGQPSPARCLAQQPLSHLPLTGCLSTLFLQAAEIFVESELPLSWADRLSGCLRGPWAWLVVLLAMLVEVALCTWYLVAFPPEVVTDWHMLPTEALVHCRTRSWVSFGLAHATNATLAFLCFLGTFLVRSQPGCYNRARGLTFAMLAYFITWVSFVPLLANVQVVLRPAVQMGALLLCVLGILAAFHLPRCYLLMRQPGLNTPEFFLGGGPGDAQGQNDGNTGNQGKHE
method-description: In vitro hT1R1/hT1R3 umami taste receptor activation assay (FLIPR, dose response)
Type: cell-based
particulars: read-out: EC50 for activation of a hT1R1/hT1R3 umami receptor expressed in an HEK293 cell line

| molecule | target | display-unit | EC50 |
| --- | --- | --- | --- |
| CC(C)CC(COP(=O)(O)O)NC(=O)c1ccc2c(c1)OCO2 (stereo not drawn) | hT1R1/hT1R3 umami receptor (Homo sapiens, UniProt Q7RTX0+Q7RTX1) | µM | 10.9 |
| CCCC(NC(=O)c1ccc2c(c1)OCO2)c1ccc(OC)cc1 (stereo not drawn) | hT1R1/hT1R3 umami receptor (Homo sapiens, UniProt Q7RTX0+Q7RTX1) | µM | 4.12 |
| COC[C@@H](CC(C)C)NC(=O)c1ccc(C)c(C)c1 | hT1R1/hT1R3 umami receptor (Homo sapiens, UniProt Q7RTX0+Q7RTX1) | µM | 0.2 |
| COc1ccc(CNC(=O)C(=O)NCCCc2ccccn2)c(OC)c1 | hT1R1/hT1R3 umami receptor (Homo sapiens, UniProt Q7RTX0+Q7RTX1) | µM | 1.84 |
| CCCC(CCC)NC(=O)c1ccc(Cl)c(C)c1 | hT1R1/hT1R3 umami receptor (Homo sapiens, UniProt Q7RTX0+Q7RTX1) | µM | 0.8 |
| COC(=O)[C@@H](CC(C)C)NC(=O)c1ccc(SC)cc1 | hT1R1/hT1R3 umami receptor (Homo sapiens, UniProt Q7RTX0+Q7RTX1) | µM | 0.16 |
| CCCC(CC(C)C)NC(=O)c1ccc(C)c(C)c1 (stereo not drawn) | hT1R1/hT1R3 umami receptor (Homo sapiens, UniProt Q7RTX0+Q7RTX1) | µM | 0.13 |
| CCc1ccc(CNC(=O)C(=O)NCCc2ccccn2)cc1 | hT1R1/hT1R3 umami receptor (Homo sapiens, UniProt Q7RTX0+Q7RTX1) | µM | 0.79 |
| Cc1occc1CNC(=O)C(=O)NCCc1ccccn1 | hT1R1/hT1R3 umami receptor (Homo sapiens, UniProt Q7RTX0+Q7RTX1) | µM | 1.82 |
| Cc1ccc(CNC(=O)C(=O)NCCc2ccccn2)n1C | hT1R1/hT1R3 umami receptor (Homo sapiens, UniProt Q7RTX0+Q7RTX1) | µM | 2.3 |
| CCCC(CCC)NC(=O)c1ccc2nc(C)oc2c1 | hT1R1/hT1R3 umami receptor (Homo sapiens, UniProt Q7RTX0+Q7RTX1) | µM | 2.1 |
| CCOc1ccc(NC(=O)NCCc2ccccn2)cc1 | hT1R1/hT1R3 umami receptor (Homo sapiens, UniProt Q7RTX0+Q7RTX1) | µM | 4.1 |
| CCCC(CC)NC(=O)c1cc2cc(OC)ccc2o1 (stereo not drawn) | hT1R1/hT1R3 umami receptor (Homo sapiens, UniProt Q7RTX0+Q7RTX1) | µM | 0.4 |
| COc1ccc(CNC(=O)C(=O)NCCc2ccccn2)cc1 | hT1R1/hT1R3 umami receptor (Homo sapiens, UniProt Q7RTX0+Q7RTX1) | µM | 0.75 |
| COc1ccc(/C=C/C(=O)N[C@@H](CO)Cc2ccccc2)cc1 | hT1R1/hT1R3 umami receptor (Homo sapiens, UniProt Q7RTX0+Q7RTX1) | µM | 1.1 |
| O=C(NCc1ccc(OC(F)(F)F)cc1)c1cccs1 | hT1R1/hT1R3 umami receptor (Homo sapiens, UniProt Q7RTX0+Q7RTX1) | µM | 2.4 |
| Cc1ccc(CNC(=O)C(=O)NCCc2ccccn2)c(C)c1 | hT1R1/hT1R3 umami receptor (Homo sapiens, UniProt Q7RTX0+Q7RTX1) | µM | 0.07 |
| CCCC(CCC)NC(=O)/C=C/c1cccs1 | hT1R1/hT1R3 umami receptor (Homo sapiens, UniProt Q7RTX0+Q7RTX1) | µM | 0.44 |
| CCCC(CC(C)C)NC(=O)/C=C/c1ccc(OC)cc1 (stereo not drawn) | hT1R1/hT1R3 umami receptor (Homo sapiens, UniProt Q7RTX0+Q7RTX1) | µM | 1.84 |
| CCOc1ccc(/C=C/C(=O)NC(CC)CC)cc1 | hT1R1/hT1R3 umami receptor (Homo sapiens, UniProt Q7RTX0+Q7RTX1) | µM | 1.35 |
| COC(=O)[C@@H](CC1CCCCC1)NC(=O)c1cc2cc(OC)ccc2o1 | hT1R1/hT1R3 umami receptor (Homo sapiens, UniProt Q7RTX0+Q7RTX1) | µM | 1.14 |
